Every entry's value here was drawn from paper PMC9352680.

Target: T1, PUF4 RNA-binding domain (Saccharomyces cerevisiae, UniProt P25339 537-888)
T1 sequence: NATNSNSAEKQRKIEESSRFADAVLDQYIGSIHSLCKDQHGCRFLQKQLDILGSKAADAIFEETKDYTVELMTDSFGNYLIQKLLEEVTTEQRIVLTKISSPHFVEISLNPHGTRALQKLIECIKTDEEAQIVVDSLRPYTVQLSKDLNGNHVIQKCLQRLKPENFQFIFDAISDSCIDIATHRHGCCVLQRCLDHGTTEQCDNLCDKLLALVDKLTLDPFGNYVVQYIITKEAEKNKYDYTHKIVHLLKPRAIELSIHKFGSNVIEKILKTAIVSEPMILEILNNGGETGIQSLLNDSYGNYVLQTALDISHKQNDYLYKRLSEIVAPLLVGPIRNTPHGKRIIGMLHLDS
Test: Mg; RNA-MaP; 20 mM Na-HEPES pH 7.4, 30 mM KOAc, 0.75 mM MgCl2, 0.1% Tween-20, 5% glycerol, 0.1 mg/mL BSA, 2 mM DTT; 25 C; 0.0125-409.6 nM protein
Conditions: tags: N-His6-TEV cleaved; C-SNAP kept, Cy3B-labelled; label: tethered on chip by stalled RNA polymerase
Please use Yes for Kd under 10 nM and No for everything else, ties included.

BINDER	ASSIGNED CLASS
UCUCUUUAUUGUAUAUAUAUCUCUU (ssRNA) [Id_iii_S1_P3E.5_K3.1_C3.3_[C-2A]_H3.1_A3.1_F3.1_T3.2]	Yes
Ib_S2_P3E.1_K3.1_C3.1_H3.1_[T1G]_A3.1_[A6T]_F3.1_T3.1 (ssRNA) RNA: UUUGAUUAAUAUGAUAUCGUUCUUUCUGGUAUUUAUUCUUUCUCGAUAUCAUAUUAAUCUUU	No
UCUCUUGUUGUAUAUUAAAUCUCUU (ssRNA) [Id_ii_S1_P4E.2_K4.1_C4.2_[C-2G]_H4.1_A4.1_F4.1_T4.2_[G10A]_[T11A]]	Yes
Ib_S2_P4E.1_K4.1_C4.1_H4.1_[G2A]_[A4C]_A4.1_F4.1_T4.1 (ssRNA) RNA: UUUGAUUAAUAUGAUAUCGUUCUUUCUUAUCUAUUAUUCUUUCUCGAUAUCAUAUUAAUCUUU	No
